Molecular target: T1, human IL-1RAcP on 293T/17-FR cells (human, UniProt Q9NPH3 21-570)
T1 sequence (looked up): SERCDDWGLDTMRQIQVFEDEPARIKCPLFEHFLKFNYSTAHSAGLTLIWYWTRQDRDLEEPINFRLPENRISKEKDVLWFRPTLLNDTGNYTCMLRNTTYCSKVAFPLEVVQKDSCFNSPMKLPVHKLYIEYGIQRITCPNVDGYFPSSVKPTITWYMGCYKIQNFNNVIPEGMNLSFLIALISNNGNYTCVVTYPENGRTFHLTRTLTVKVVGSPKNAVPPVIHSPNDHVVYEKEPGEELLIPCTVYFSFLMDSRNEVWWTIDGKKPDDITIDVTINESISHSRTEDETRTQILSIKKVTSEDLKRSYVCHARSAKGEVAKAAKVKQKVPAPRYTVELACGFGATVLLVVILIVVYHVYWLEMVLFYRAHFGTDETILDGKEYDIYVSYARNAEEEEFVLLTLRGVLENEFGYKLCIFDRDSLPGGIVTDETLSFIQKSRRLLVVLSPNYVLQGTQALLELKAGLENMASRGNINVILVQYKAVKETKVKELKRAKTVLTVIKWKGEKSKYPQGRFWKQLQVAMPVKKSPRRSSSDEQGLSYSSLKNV
Assay: cell-based or functional assay
Form field: functional reporter gene assay (% inhibition), 0.2 µg/mL mAb (one value per entry).
Dear colleague, please return just the value in %, with no unit written.

Lab note: P013.S.01.B.C02 (antibody, V domains shown, rabbit monoclonal antibody; also called P013.A.00014.C10) VH: QSLEESGGDLVKPGASLTLTCTASGFSFSSSHYMCWVRQAPGKGLEWIACIYAGSSGNTYYANWAKGRFTISKTSSTTVTLQMTSLTAADTATYFCARVDASSSGSWDLWGPGTLVTVSS VL: AIEMTQTPFSVSAAVGGTVTINCQASESIYSNLAWYQQILGQPPKLLIYAASLLASGVPSRFKGSGSGTEYTLTISGVQSADAATYYCQSASYSTGPDWTFGGGTEVVVE gave functional reporter gene assay (% inhibition), 0.2 µg/mL mAb of 78

***
Lab note: P013.S.01.B.C06 (antibody, V domains shown, rabbit monoclonal antibody; also called P013.A.00014.D06) VH: QSVEESGGRLVTPGGSLTLTCTVSGFSLSIYAMGWFRQAPGKGLEWIGDIYAGSGSTWYASWAKGRFTISKTSTTVDLKITSPTTEDTATYFCAREIDAGYVGYGFNLWGQGTLVTVSS VL: AQALTQTPSSVSAAVGGTVTINCQSSQSVYSDYLAWYQQKPGQPPKLLIYQASKLATGVPSRFKGSGSGTQFTLTISGVQSDDAATYYCQATYYGSGWYRAFGGGTELVVK gave functional reporter gene assay (% inhibition), 0.2 µg/mL mAb of 70

Lab note: P013.S.01.B.G03 (antibody, V domains shown, rabbit monoclonal antibody; also called P013.A.00030.C03) VH: QEQLVESGGGLVQPEGSLTLTCKASGFDFSSNYYMCWVRQAPGKGLELIACIYTNSGNTWSASWAKGRFTISKTSSTTVTLQMTSLTAADTATYFCARDLNYPDTSNLWGQGTLVTVSS VL: DIVMTQTPASVEAAVGGTVTIKCQASQSIGYYLAWYQQKPGQPPKLLISRASTLASGVPSRFKGSGSGTQFTLTISDLESADVATYYCQSYYNSDSDAFGGGTEVVVK gave functional reporter gene assay (% inhibition), 0.2 µg/mL mAb of 51
